Data origin, for the record: paper PMC7378079

Molecular target: T1, CFP-ARC4 (TNKS1) (human, N-terminal mCerulean fusion omitted; limits by homology to TNKS2 ARC4 488-649)
T1 chain: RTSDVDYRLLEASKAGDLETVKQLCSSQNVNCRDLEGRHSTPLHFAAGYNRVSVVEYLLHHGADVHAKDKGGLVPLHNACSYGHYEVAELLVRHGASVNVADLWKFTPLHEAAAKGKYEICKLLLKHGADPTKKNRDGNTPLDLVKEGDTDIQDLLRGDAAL
Assay: FRET or BRET; titration for Kd after Song et al.: CFP-fusion kept constant (50 nM to 1.1 µM), YFP-fusion 0-4,000 nM; FRET emission on excitation at 430 nm; assay buffer 10 mM Bis-Tris-Propane pH 7.0, 3% PEG20,000, 0.01% Triton-X100, 0.5 mM TCEP; 384-well plates, 4 replicates; the paper calls the constants an estimation
Conditions: both partners purified
observable: Kd (nM)
Lab book: enter the figure in nM, no units written.

Recorded Kd (binder REAGDGEE (also called TBM (REAGDGEE); YFP-fused TBM; source: E. coli BL21(DE3), purified (IMAC); not shown: mCitrine (YFP), N-terminal, kept) [YFP-TBM] ): 45
